# MEASURED_TARGET: cAMP-dependent protein kinase catalytic subunit PRKX (Homo sapiens)
# APPLIED_CONDITIONS: at 1 µM
RECORDED_ENDPOINT: residual activity (%)
Write the number in % without appending the unit.

>>> experimental_result("O=C(c1cc2cc(O)ccc2[nH]1)c1cc2cc(O)ccc2[nH]1")
81
>>> experimental_result("O=C1Nc2ccc(Cl)cc2/C1=C/c1cc(Cl)c(O)c(Cl)c1")
59
>>> experimental_result("O=C1NC(=O)c2c1c1c3ccccc3[nH]c1n1cncc21")
80
>>> experimental_result("O=C(Nc1nc2ccccc2n1CCN1CCOCC1)c1cccc([N+](=O)[O-])c1")
108
>>> experimental_result("O=C1NC(=O)C(c2cn(CCCn3ccnc3)c3ccccc23)=C1Nc1ccccc1")
80

Prompt: Requested field: residual activity. Item: Fc1ccc(-c2nc3n(c2-c2ccncc2)CCS3)cc1
Completion: 92

Prompt: Could you do the same for N#Cc1c(NC(=O)c2cccc3ccccc23)sc2c1CCCC2 , please?
Completion: 80

Prompt: Could you do the same for O=c1cc(N2CCOCC2)oc2c1ccc1ccccc12 , please?
Completion: 97

Prompt: Could you do the same for O=C(O)/C=C/c1cc(Br)c(Br)c(Br)c1Br , please?
Completion: 68

Prompt: Could you do the same for O=C1C(Cl)=C(N2C(=O)CCC2=O)C(=O)c2ccccc21 , please?
Completion: 93

Prompt: Could you do the same for O=C(c1ccccc1)c1ccc(N2CCOCC2)cc1O , please?
Completion: 86

Prompt: Could you do the same for CCCC(=O)Oc1ccc2[nH]c(C(=O)c3cc4ccccc4[nH]3)cc2c1 , please?
Completion: 88

Prompt: Could you do the same for O=S(=O)(c1cccc2cnccc12)N1CCCNCC1 , please?
Completion: 21

----------
# MEASURED_TARGET: Serine/threonine-protein kinase 4 (Homo sapiens)
# APPLIED_CONDITIONS: at 10 µM
RECORDED_ENDPOINT: residual activity (%)
Write the number in % without appending the unit.

Past entries and their recorded results:
>>> experimental_result("O=C(Nc1nc2ccccc2n1CCN1CCOCC1)c1cccc([N+](=O)[O-])c1")
77
>>> experimental_result("CCCC(=O)Oc1ccc2[nH]c(C(=O)c3cc4ccccc4[nH]3)cc2c1")
103
>>> experimental_result("COc1cc2ncnc(Nc3cccc(Cl)c3)c2cc1OC")
74
>>> experimental_result("CN(C)S(=O)(=O)c1ccc2c(c1)/C(=C/c1cc3c([nH]1)CCCC3)C(=O)N2")
2
>>> experimental_result("O=C1Nc2ccccc2/C1=C\\c1c(Cl)[nH]c2ccccc12")
63
>>> experimental_result("CCCCc1c(-c2ccc(O)cc2)[nH]c2nccnc12")
42
>>> experimental_result("O=C1Nc2ccc(Cl)cc2/C1=C/c1cc(Cl)c(O)c(Cl)c1")
12
>>> experimental_result("CC(C)[C@H](CO)Nc1nc(Nc2cc(N)cc(Cl)c2)c2ncn(C(C)C)c2n1")
47

Prompt: Requested field: residual activity. Item: CC(C)(C)c1nc2c3ccc(F)cc3c3c(=O)[nH]ccc3c2[nH]1
Completion: 10

Prompt: Could you do the same for Cn1c2ccccc2c2c3c(c4c5ccccc5n(CCC#N)c4c21)CNC3=O , please?
Completion: 2
